From: patent US20250223297A1

# Tested on: mTORC1 signaling (pS6 Ser240/244) in MEF TSC1−/− cells
# TEST: MEF TSC1-/- cell based assay for rapalog potency (pS6)
# Design: species or system mouse
# TEST_CONDITIONS: 2 h treatment, average from multiple assays
pIC50: −log10 of the molar value.
READOUT_TYPE: pIC50

{"columns": ["MOLECULE", "TARGET", "READOUT_TYPE", "QUANTITATIVE_RESULT"],
 "data": [
  ["CO[C@@H]1C[C@H](C[C@@H](C)[C@@H]2CC[C@H](C)/C=C(\\C)[C@@H](O)[C@@H](OC)C(=O)[C@H](C)C[C@H](C)/C=C/C=C/C=C(\\C)C(N3CCS3(=O)=O)C[C@@H]3CC[C@@H](C)[C@@](O)(O3)C(=O)C(=O)N3CCCC[C@H]3C(=O)O2)CC[C@H]1OCCO (single isomer, unassigned) [Example 9]", "mTORC1 signaling (pS6 Ser240/244) in MEF TSC1−/− cells", "pIC50", 8.84],
  ["CO[C@@H]1C[C@H](C[C@@H](C)[C@@H]2CC[C@H](C)/C=C(\\C)[C@@H](O)[C@@H](OC)C(=O)[C@H](C)C[C@H](C)/C=C/C=C/C=C(\\C)C(N3CCS3(=O)=O)C[C@@H]3CC[C@@H](C)[C@@](O)(O3)C(=O)C(=O)N3CCCC[C@H]3C(=O)O2)CC[C@H]1OCCO (single isomer, unassigned) [Example 8]", "mTORC1 signaling (pS6 Ser240/244) in MEF TSC1−/− cells", "pIC50", 9.48],
  ["CO[C@@H]1C[C@H](C[C@@H](C)[C@@H]2CC[C@H](C)/C=C(\\C)[C@@H](O)[C@@H](OC)C(=O)[C@H](C)C[C@H](C)/C=C/C=C/C=C(\\C)C(N3CCS3(=O)=O)C[C@@H]3CC[C@@H](C)[C@@](O)(O3)C(=O)C(=O)N3CCCC[C@H]3C(=O)O2)CC[C@H]1O (single isomer, unassigned)", "mTORC1 signaling (pS6 Ser240/244) in MEF TSC1−/− cells", "pIC50", 9.52],
  ["CO[C@@H]1C[C@H](C[C@@H](C)[C@@H]2CC[C@H](C)/C=C(\\C)[C@@H](O)[C@@H](OC)C(=O)[C@H](C)C[C@H](C)/C=C/C=C/C=C(\\C)C(N3CCS3(=O)=O)C[C@@H]3CC[C@@H](C)[C@@](O)(O3)C(=O)C(=O)N3CCCC[C@H]3C(=O)O2)CC[C@@H]1n1cnnn1 (single isomer, unassigned)", "mTORC1 signaling (pS6 Ser240/244) in MEF TSC1−/− cells", "pIC50", 9.18]
]}
